Value source: patent US12441755B2

target: Gal-1 (Homo sapiens, UniProt P09382); test: Fluorescence anisotropy assay, compound as inhibitor of galectin / fluorescein tagged saccharide probe interaction
Sequence (P09382 whole entry): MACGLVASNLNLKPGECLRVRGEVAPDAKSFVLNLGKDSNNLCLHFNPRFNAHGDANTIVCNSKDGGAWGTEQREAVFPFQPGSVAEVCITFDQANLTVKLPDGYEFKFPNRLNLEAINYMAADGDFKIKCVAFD
METRIC: Kd (nM)
State the answer as a number, implicitly in nM.

Exam item: What Kd value was documented for this compound, Cc1nc([C@@H]2OC(CO)[C@H](O)C(n3cc(-c4nc(Cl)cs4)nn3)C2O)n(-c2cc(Cl)ccc2C(F)(F)F)n1 (stereo partly shown) ?
Marked response: 900

Exam item: Entry Cc1nnc([C@@H]2O[C@H](CO)[C@H](O)[C@H](n3cc(-c4csc(N)n4)nn3)[C@H]2O)n1-c1cc(Cl)ccc1C(F)(F)F has what Kd?
Marked response: 730

Exam item: Which value of Kd has been reported for Cc1nnc([C@@H]2O[C@H](CO)[C@H](O)[C@H](n3cc(-c4nc(Cl)cs4)nn3)[C@H]2O)n1-c1cc(Cl)ccc1C(F)(F)F in the records?
Marked response: 290

Exam item: Given Cc1nc([C@@H]2O[C@H](CO)[C@H](O)[C@H](n3cc(-c4csc(C)n4)nn3)[C@H]2O)n(-c2ccc3nc(C)sc3c2)n1 , state its recorded Kd.
Marked response: 9000

Exam item: What does the record list as Kd for Cc1nc([C@@H]2O[C@H](CO)[C@H](O)[C@H](n3cc(-c4nccs4)nn3)[C@H]2O)n(-c2ccc3nc(C)sc3c2)n1 ?
Marked response: 5200

Exam item: // Kd lookup, key: Cc1nc([C@@H]2O[C@H](CO)[C@H](O)[C@H](n3cc(-c4nc(Cl)cs4)nn3)[C@H]2O)n(-c2ccc3nc(C)sc3c2)n1
Marked response: 2100

Exam item: Entry under review: CO[C@@H]1[C@@H](n2cc(-c3nc(Cl)cs3)nn2)[C@@H](O)[C@@H](CO)O[C@H]1c1nnc(C)n1-c1ccc2nc(C)sc2c1 . Reported Kd?
Marked response: 340

Exam item: Consider the compound Cc1nc2ccc(-n3cnnc3[C@@H]3O[C@H](CO)[C@H](O)[C@H](n4cc(-c5nccs5)nn4)[C@H]3O)cc2s1 and give its measured Kd.
Marked response: 3000

Exam item: Kd for Cc1csc(-c2cn([C@H]3[C@@H](O)[C@@H](CO)O[C@@H](c4nncn4-c4ccc5nc(C)sc5c4)[C@@H]3O)nn2)n1 ?
Marked response: 2400

Exam item: Dear colleague, I am looking for the recorded Kd of the following compound: CO[C@@H]1[C@@H](n2cc(-c3nc(Cl)cs3)nn2)[C@@H](O)[C@@H](CO)O[C@H]1c1nnc(C)n1-c1cc(Cl)ccc1C(F)(F)F
Marked response: 520

Exam item: Which Kd value is on record for Cc1nnc([C@@H]2OC(CO)[C@H](O)C(n3cc(-c4nc(Cl)cs4)nn3)C2O)n1-c1ccc2ncn(C)c2c1 (stereo partly shown) ?
Marked response: 2600

Exam item: Which measured Kd value corresponds to Cc1nc([C@@H]2OC(CO)[C@H](O)C(n3cc(-c4csc(N)n4)nn3)C2O)n(-c2cc(Cl)ccc2C(F)(F)F)n1 (stereo partly shown) ?
Marked response: 1500

Exam item: # query: Kd of entry Cc1nc([C@@H]2O[C@H](CO)[C@H](O)[C@H](n3cc(-c4nc(Cl)cs4)nn3)[C@H]2O)n(-c2cc(Cl)cnc2C2CC2)n1
Marked response: 660
